# System: C. elegans
# PROCEDURE TEXT: C. elegans motor phenotype scoring on solid media (Punc/jerky-unc, coiled, paralyzed), wild-type young adults
# Format: in vivo, Caenorhabditis elegans
# PROTOCOL CONDITIONS: Caenorhabditis elegans; any motor phenotype after 1 h on solid media; ± 95% CI; read-out: C. elegans - motor disruption EC50
pEC50: −log10 of the molar value.
Catalogue of pEC50 readings, one per entry.
ENDPOINT NAME: pEC50

FC(F)(F)c1cccc(N2CCN(C3CCCCCC3)CC2)c1    5.44
FC(F)(F)c1cccc(N2CCN(C3CCCCCCC3)CC2)c1    5.10
CC1CCC(N2CCN(c3ccccc3)CC2)CC1 (centres unmarked)    5.52
c1ccc(N2CCN(C3CCCCCCC3)CC2)cc1    5.40
Clc1ccc(N2CCN(CC3CCCCC3)CC2)cc1    4.34
c1ccc(N2CCN(CC3CCCC3)CC2)cc1    4.95
CC1CCC(N2CCN(c3ccc(Cl)cc3)CC2)C1 (centres unmarked)    5.47
N#Cc1ccc(N2CCN(CC3CCCC3)CC2)cc1    4.66
Cc1cc([N+](=O)[O-])ccc1N1CCN(CC2CCCCC2)CC1    4.49
Cc1cc(N2CCN(CC3CCCCC3)CC2)ccc1[N+](=O)[O-]    4.39
O=[N+]([O-])c1ccc(N2CCN(C3CCCCCCC3)CC2)cc1    4.71
CC1CCC(N2CCN(c3ccc([N+](=O)[O-])cc3)CC2)CC1 (centres unmarked)    5.14
Clc1ccc(N2CCN(CC3CC4C=CC3C4)CC2)cc1 (centres unmarked)    5.64
O=[N+]([O-])c1ccc(N2CCN(C3CCCC3)CC2)cc1    5.17
Clc1ccc(N2CCN(C3CCCCCC3)CC2)cc1    5.64
FC(F)(F)c1cccc(N2CCN(CC3CCCCC3)CC2)c1    4.95
FC(F)(F)c1cccc(N2CCN(CC3CCCC3)CC2)c1    5.21
O=[N+]([O-])c1ccc(N2CCN(C3CCCCCC3)CC2)cc1    5.39
Cc1ccc(N2CCN(C3CCC(C)C3)CC2)cc1 (centres unmarked)    5.48
N#Cc1ccc(N2CCN(CC3CCCCC3)CC2)cc1    4.79
CC1CCC(N2CCN(c3ccc(F)cc3)CC2)CC1 (centres unmarked)    5.26
O=[N+]([O-])c1ccc(N2CCN(C3CCCCC3)CC2)cc1    5.80
Fc1ccc(N2CCN(CC3CCCCC3)CC2)cc1    4.84
Cc1ccc(N2CCN(CC3CC4C=CC3C4)CC2)cc1 (centres unmarked)    5.41
Fc1ccccc1N1CCN(C2CCCCCC2)CC1    5.10
